From: the supplement of paper PMC10065799

molecular target: FGFR3 (UniProt P22607); assay: phosphorylation enrichment, bacterial display (enrichment ratio); higher = better substrate or ligand; peptides without Tyr show the background;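 further: 11-residue human phosphosite peptides and single-mutation variants displayed on the E. coli surface, counted by deep sequencing, each peptide's frequency after selection divided by its frequency in the unselected input library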;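 further: frequency after pTyr selection over input frequency; kinase dosed for 20-30% of maximal phosphorylation in three min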
Sequence (P22607 whole entry, looked up): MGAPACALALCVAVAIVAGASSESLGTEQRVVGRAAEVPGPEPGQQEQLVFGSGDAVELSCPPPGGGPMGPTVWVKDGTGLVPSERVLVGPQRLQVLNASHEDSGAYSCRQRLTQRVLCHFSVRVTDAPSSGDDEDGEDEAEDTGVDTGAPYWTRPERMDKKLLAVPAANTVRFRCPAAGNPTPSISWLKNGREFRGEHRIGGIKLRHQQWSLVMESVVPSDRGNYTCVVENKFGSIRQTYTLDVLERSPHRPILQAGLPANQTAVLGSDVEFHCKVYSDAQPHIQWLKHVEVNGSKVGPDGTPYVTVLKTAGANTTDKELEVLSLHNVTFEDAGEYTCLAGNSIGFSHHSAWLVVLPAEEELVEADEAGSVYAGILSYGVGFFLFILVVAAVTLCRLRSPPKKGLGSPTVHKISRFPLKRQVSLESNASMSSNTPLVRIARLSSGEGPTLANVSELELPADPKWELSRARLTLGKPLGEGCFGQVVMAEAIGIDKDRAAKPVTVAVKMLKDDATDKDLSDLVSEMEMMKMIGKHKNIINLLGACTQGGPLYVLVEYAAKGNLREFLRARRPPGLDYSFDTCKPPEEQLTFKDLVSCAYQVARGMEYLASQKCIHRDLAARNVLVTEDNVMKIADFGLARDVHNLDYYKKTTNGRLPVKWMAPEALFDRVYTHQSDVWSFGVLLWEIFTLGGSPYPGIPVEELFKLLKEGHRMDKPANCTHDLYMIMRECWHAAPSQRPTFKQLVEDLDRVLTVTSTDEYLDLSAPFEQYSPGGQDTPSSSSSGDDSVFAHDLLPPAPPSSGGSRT
# if value of phosphorylation enrichment reaches 0.6, tag Satisfied; if it stays below, tag Not satisfied

* RRLEPYGENFN [APOA4_Y310_V307L] | Not satisfied

Next item in the queue.
(Q) Does phosphorylation enrichment meet or surpass 0.6 for CTTIHYNNMCN [TP53_Y234_Y236N] ?
(A) Not satisfied

###

molecular target: FGFR3 (UniProt P22607); experiment: phosphorylation enrichment, bacterial display (enrichment ratio); higher = better substrate or ligand; peptides without Tyr show the background
endpoint name: phosphorylation enrichment
Enter a number only.

For the sequence VSTAVYKRFAS [BEST1_Y148_P152A] , the measured phosphorylation enrichment on FGFR3 (UniProt P22607) was 0.48

For the sequence DVAKEYGHLLP [HRC_Y99_S96A] , the measured phosphorylation enrichment on FGFR3 (UniProt P22607) was 0.522

For the sequence ETKKQYNSFTF [TMED3_Y85_D86N_YF] , the measured phosphorylation enrichment on FGFR3 (UniProt P22607) was 0.454

For the sequence RIGRKYKKVRF [F8_Y442] , the measured phosphorylation enrichment on FGFR3 (UniProt P22607) was 0.364

For the sequence DLFRLYICVKE [ARID1B_Y1091_V1092I] , the measured phosphorylation enrichment on FGFR3 (UniProt P22607) was 1

For the sequence ETKEDYEKILV [ANXA1_Y335_G333E] , the measured phosphorylation enrichment on FGFR3 (UniProt P22607) was 0.743

For the sequence LNYNEYFRDLN [HPRT1_Y198_D194N] , the measured phosphorylation enrichment on FGFR3 (UniProt P22607) was 1.38

For the sequence QPGDICHQTWA [GBA_Y244_Y244C] , the measured phosphorylation enrichment on FGFR3 (UniProt P22607) was 0.608

For the sequence SRGSSYSSIPK [FLNC_Y2625] , the measured phosphorylation enrichment on FGFR3 (UniProt P22607) was 0.362

For the sequence KVKPIYFRTQG [AR_Y916_H918R] , the measured phosphorylation enrichment on FGFR3 (UniProt P22607) was 0.448

For the sequence VDEVLYEDSST [MTHFS_Y197] , the measured phosphorylation enrichment on FGFR3 (UniProt P22607) was 0.886

For the sequence ALPVFYAATIA [SLC20A2_Y187] , the measured phosphorylation enrichment on FGFR3 (UniProt P22607) was 0.651

For the sequence SARFRYLMAEK [LDHB_Y173] , the measured phosphorylation enrichment on FGFR3 (UniProt P22607) was 0.469

For the sequence QHVPDYRQNGY [PCDHGA1_Y890_V894G] , the measured phosphorylation enrichment on FGFR3 (UniProt P22607) was 0.578
